Numbers sourced from patent EP4729546A1.

# Target entity: huFXII-his (human) (UniProt P00748)
# Sequence (P00748 20-615, form in doubt): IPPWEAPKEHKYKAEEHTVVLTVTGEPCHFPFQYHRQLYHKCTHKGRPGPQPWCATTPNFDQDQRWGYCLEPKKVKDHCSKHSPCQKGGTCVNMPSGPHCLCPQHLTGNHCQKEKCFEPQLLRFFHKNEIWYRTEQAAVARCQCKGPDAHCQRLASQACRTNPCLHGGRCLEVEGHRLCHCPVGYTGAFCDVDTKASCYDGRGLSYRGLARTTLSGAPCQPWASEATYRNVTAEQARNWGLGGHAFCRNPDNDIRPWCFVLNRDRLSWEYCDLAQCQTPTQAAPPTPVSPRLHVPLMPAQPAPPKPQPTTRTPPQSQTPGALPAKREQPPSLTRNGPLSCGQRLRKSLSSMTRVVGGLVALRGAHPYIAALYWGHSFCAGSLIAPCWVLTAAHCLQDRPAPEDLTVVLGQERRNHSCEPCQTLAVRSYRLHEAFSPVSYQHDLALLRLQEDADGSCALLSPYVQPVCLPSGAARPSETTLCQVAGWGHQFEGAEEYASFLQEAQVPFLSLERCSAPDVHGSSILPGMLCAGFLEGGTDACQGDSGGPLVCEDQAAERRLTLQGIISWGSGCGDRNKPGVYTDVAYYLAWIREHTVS
# Measurement notes: ELISA, huFXII-his coated at 1 µg/ml, HRP anti-human secondary, OD450
# EC50 annotations
Endpoint label: EC50 (µg/mL)

Binder	Result value
FX-Y17-Y7 (antibody, V domains shown) VH: EVQLLESGGGLVQPGGSLRLSCAGSGFSFGSQTMSWVRQAPGKGLEWVSSISVISGRAYYADSVKGRFTISRDNSKNTLYLQMNSLRAEDTAVYYCTKSHAFDVWGQGTMVTVSS VL: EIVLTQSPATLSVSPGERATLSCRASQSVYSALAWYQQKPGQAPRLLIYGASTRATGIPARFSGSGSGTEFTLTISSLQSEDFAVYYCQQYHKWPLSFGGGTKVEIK	0.136
FX-Y17-Y45 (antibody, V domains shown) VH: EVQLLESGGGLVQPGGSLRLSCAGSGFSFGSQTMSWVRQAPGKGLEWVSSISHISGRTYYADSVKGRFTISRDNSKNTLYLQMNSLRAEDTAVYYCAKSHAFDVWGQGTMVTVSS VL: EIVLTQSPATLSVSPGERATLSCRASQSVYSALAWYQQKPGQAPRLLIYGASTRATGIPARFSGSGSGTEFTLTISSLQSEDFAVYYCQQNNRWPLSFGGGTKVEIK	0.358
FX-Y17-Y23 (antibody, V domains shown) VH: EVQLLESGGGLVQPGGSLRLSCAGSGFSFGSQTMSWVRQAPGKGLEWVSSISVISGRSYYADSVKGRFTISRDNSKNTLYLQMNSLRAEDTAVYYCTRSHAFDVWGQGTMVTVSS VL: EIVLTQSPATLSVSPGERATLSCRASQSVWSNLAWYQQKPGQAPRLLIYGASTRATGIPARFSGSGSGTEFTLTISSLQSEDFAVYYCQQYHKWPLSFGGGTKVEIK	0.0942
